- Target Entity: furin, P09958;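 note: purified furin at 1:10 enzyme:substrate in 50 mM HEPES pH 7.5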
- Sequence (P09958 whole entry): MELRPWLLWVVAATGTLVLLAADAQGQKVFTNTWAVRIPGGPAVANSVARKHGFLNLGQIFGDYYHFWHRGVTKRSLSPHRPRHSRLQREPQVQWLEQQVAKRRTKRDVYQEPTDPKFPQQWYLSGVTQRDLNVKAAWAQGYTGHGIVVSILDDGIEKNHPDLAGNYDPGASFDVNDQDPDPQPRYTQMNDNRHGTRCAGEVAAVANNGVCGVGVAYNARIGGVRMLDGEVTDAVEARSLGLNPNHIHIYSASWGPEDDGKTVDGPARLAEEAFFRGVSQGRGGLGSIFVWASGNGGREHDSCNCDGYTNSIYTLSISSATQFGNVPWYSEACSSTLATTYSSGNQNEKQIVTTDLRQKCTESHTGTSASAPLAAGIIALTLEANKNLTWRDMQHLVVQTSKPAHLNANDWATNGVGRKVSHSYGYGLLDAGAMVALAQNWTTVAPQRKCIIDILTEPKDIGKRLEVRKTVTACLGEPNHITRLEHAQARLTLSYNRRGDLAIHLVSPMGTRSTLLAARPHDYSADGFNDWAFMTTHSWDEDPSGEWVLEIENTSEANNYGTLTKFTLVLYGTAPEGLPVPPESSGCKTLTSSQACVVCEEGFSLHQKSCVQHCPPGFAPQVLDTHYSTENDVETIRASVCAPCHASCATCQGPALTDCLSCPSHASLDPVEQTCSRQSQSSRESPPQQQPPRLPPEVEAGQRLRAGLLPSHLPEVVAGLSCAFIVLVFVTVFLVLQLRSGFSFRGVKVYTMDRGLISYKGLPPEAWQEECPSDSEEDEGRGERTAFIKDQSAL
- Protocol Notes: furin cleavage Z-score vs untreated control; higher = more cleavage, active = 3.5 or more, inactive = 1 or less, 8 variable residues between constant flanks
- Measurement Context: 7.5 min
Some of the results follow. How many sequences the whole screen found active is unknown.
Metric: furin cleavage Z-score
// response body must contain only the number

Problem: Given CARSRRDFGLAGNASASA [FS-2310] , state its recorded furin cleavage Z-score.
Result: 2.52

Problem: For CAEVPCHTPSAGNASASA [HC2378] then?
Result: 0.816

Problem: For CAEWTTPCSGAGNASASA [HC1968] then?
Result: -0.833

Problem: For CARLRRVKTAAGNASASA [FS-1746] then?
Result: -0.934

Problem: For CAGPIRLKRDAGNASASA [FS-593] then?
Result: 15

Problem: For CARVERFKRDAGNASASA [FS-1567] then?
Result: 12.4

Problem: For CARDGRDGRKAGNASASA [FS-1999] then?
Result: 1.36

Problem: For CAMEEKSQHLAGNASASA [HC11] then?
Result: 0.661

Problem: For CARHVRISRSAGNASASA [FS-708] then?
Result: 10.5

Problem: For CARSRRGVSEAGNASASA [FS-2461] then?
Result: 8.54

Problem: For CAQTLLFNILAGNASASA [HC1063] then?
Result: 0.309

Problem: For CAEVVTPTWVAGNASASA [HC160] then?
Result: 0.0725

Problem: For CAAGAHWGVLAGNASASA [HC335] then?
Result: -0.197

Problem: For CARIMRDSGLAGNASASA [FS-2150] then?
Result: -1.41

Problem: For CAEEVVCCSMAGNASASA [HC2132] then?
Result: 0.374

Problem: For CAGLYHVTNDAGNASASA [HC260] then?
Result: 0.615

Problem: For CALYGNEGCGAGNASASA [HC203] then?
Result: -0.0812

Problem: For CADLLEDNVTAGNASASA [HC1433] then?
Result: 0.275

Problem: For CARSRKRVSEAGNASASA [FS-2460] then?
Result: 0.0687

Problem: For CAVGCCSMSYAGNASASA [HC2016] then?
Result: -0.196

Problem: For CARLRRSLSPAGNASASA [FS-2352] then?
Result: 10.8

Problem: For CARHVRSYNHAGNASASA [FS-2026] then?
Result: 0.349

Problem: For CARLRRQKKGAGNASASA [FS-916] then?
Result: -0.934

Problem: For CARLRRSGRCAGNASASA [FS-3161] then?
Result: 3.21

Problem: For CAVVCCSMYYAGNASASA [HC2069] then?
Result: -0.54

Problem: For CAETVTSTWVAGNASASA [HC2178] then?
Result: -0.174

Problem: For CARSRRDGRKAGNASASA [FS-3172] then?
Result: 6.47

Problem: For CAPAGRISRSAGNASASA [FS-835] then?
Result: 6.15

Problem: For CARLRRSLPPAGNASASA [FS-2280] then?
Result: 7.15

Problem: For CAEVVTMTWVAGNASASA [HC148] then?
Result: 0.302
